// provenance: patent US11932658B2

Biological target: PAR4 (Homo sapiens, UniProt Q96RI0)
Construct: expressed in transfected cells; host or cells: HEK293 PAR4 Clone 1.2A (BMS Arctic ID 383940)
Sequence (Q96RI0 18-385): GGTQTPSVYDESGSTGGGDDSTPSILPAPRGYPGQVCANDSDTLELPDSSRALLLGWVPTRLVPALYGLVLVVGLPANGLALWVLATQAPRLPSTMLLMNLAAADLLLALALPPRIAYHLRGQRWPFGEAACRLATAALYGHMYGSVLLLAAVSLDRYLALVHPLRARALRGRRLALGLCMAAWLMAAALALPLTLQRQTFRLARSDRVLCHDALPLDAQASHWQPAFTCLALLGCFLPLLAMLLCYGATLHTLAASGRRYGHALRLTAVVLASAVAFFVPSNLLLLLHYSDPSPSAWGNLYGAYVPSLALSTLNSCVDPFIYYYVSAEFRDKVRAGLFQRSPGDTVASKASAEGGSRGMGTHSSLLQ
Test: PAR4 FLIPR assay (antagonism of agonist peptide-induced calcium mobilization)
Format: cell-based
Output True for records whose IC50 is lower than 2 nM, False for records at or above 2 nM.

compound="COc1cnc2c(-c3nc4cc(F)c5c(c4s3)C[C@H](COC(=O)Nc3cnc(C)nc3)O5)cc(C)cc2c1 [Example 269]" class_name=False
compound="COc1cnc2c(-c3nc4c(C)cc5c(c4s3)OC[C@H](COC(=O)Nc3cccnc3)O5)cc(C)cc2n1 (single isomer, unassigned) [Example 5]" class_name=True
compound="COc1cnc2c(-c3nc4cc(F)c5c(c4s3)C[C@@](C)(CNC(=O)OC(C)(C)C)O5)cc(C)cc2n1 [Example 242]" class_name=False
compound="COc1cnc2c(-c3nc4cc(F)c5c(c4s3)C[C@@H](CNC(C)=O)O5)cc(C)cc2n1 [Example 209]" class_name=False
compound="COc1cnc2c(-c3nc4cc(F)c5c(c4s3)C[C@H](COC(=O)Nc3cnc(C)nc3)O5)cc(C)cc2n1 [Example 145]" class_name=True
compound="COc1cnc2c(-c3nc4cc(F)c5c(c4s3)CC(C)(C)O5)cc(C)cc2n1 [Example 200]" class_name=False
compound="Cc1ncc(NC(=O)OC[C@H]2Cc3c(c(F)cc4nc(-c5cc(Cl)cc6cc(OC(F)F)cnc56)sc34)O2)cn1 [Example 273]" class_name=False
compound="COc1cnc2c(-c3nc4ccc5c(c4s3)OC[C@H](COC(=O)Nc3cnc(C)nc3)O5)cc(Cl)cc2c1 [Example 266]" class_name=False
compound="COc1cnc2c(-c3nc4c(C)cc5c(c4s3)OCC(COC(=O)Nc3cnc4c(c3)ncn4C)O5)cc(C)cc2n1 (centres unmarked) [Example 129]" class_name=True
compound="COc1cnc2c(-c3nc4cc(F)c5c(c4s3)C[C@@H](CNC(=O)OCC(C)C)O5)cc(C)cc2n1 [Example 246]" class_name=False
compound="COc1cnc2c(-c3nc4ccc5c(c4s3)C[C@@H](C(C)O)O5)cc(C)cc2n1 (mixture of isomers) [Example 190]" class_name=False
compound="COc1cnc2c(-c3nc4cc(F)c5c(c4s3)C[C@@H](CNC(=O)OCC(C)(C)C)O5)cc(C)cc2n1 [Example 261]" class_name=True
compound="Cc1cc(-c2nc3c(F)cc4c(c3s2)OCC(CNC(=O)OC(C)(C)C)O4)c2ncc(OC(F)F)nc2c1 (centres unmarked) [Example 21]" class_name=False
compound="COc1cnc2c(-c3nc4c(C)cc5c(c4s3)OCC(COC(=O)Nc3ccc(F)nc3)O5)cc(Cl)cc2n1 (centres unmarked) [Example 96]" class_name=False
